Please go through the items and note down their melting point.

Challenge: melting point for `O=C(O)c1ccc(SCc2ccccc2)cc1` ?
Response given: 184 to 186 °C

Challenge: Dear colleague, I am looking for the recorded melting point of the following molecule: `Cc1nc2ccc(N)cc2o1`
Response given: 129 to 131 °C

Challenge: Which melting point reading was recorded for the molecule `NC(=O)c1ccc(CSc2ncccc2C(=O)O)cc1` ?
Response given: 291 to 293 °C

Challenge: For the molecule shown here, `CC(C)S(=O)(=O)c1ccc(C(=O)O)cc1` , give the reported melting point.
Response given: 186 to 188 °C

Challenge: Need melting point of `COc1ccc(C(=O)N2CCCC2)cc1N` , thanks.
Response given: 137 to 139 °C

Challenge: # query: melting point of entry `Nc1c(Br)cc(Cl)cc1C(=O)O`
Response given: 232 to 234 °C

Challenge: Looking for the measured melting point of CNC1(c2ccccc2Cl)CCCC(=Cc2cccs2)C1=O (stereo not drawn) , can you help?
Response given: 129 to 131 °C

Challenge: Recorded melting point for `Cn1cnc(-c2cccc(N)c2)n1` , please?
Response given: 184 to 186 °C
